Ref: ChEMBL document CHEMBL4043137

target.under.test: Bromodomain-containing protein 4 (Homo sapiens, UniProt O60885)
experiment.notes: Inhibition of human BRD4 bromo domain 2 at 5 uM
Where inhibition equals or exceeds 90%, the correct label is Y; where it does not, the label is N.

molecule.smiles | class.name
COc1cc(OC)c2c(=O)[nH]c(-c3cc(C)c(OC/C=C/C(=O)NO)c(C)c3)nc2c1 | Y
COc1cc(OC)c2c(=O)[nH]c(-c3cc(C)c(Oc4ccc(C(=O)NO)cn4)c(C)c3)nc2c1 | Y
COc1cc(OC)c2c(=O)[nH]c(-c3cc(C)c(O)c(C)c3)nc2c1 | Y
COc1cc(OC)c2c(=O)[nH]c(-c3cc(C)c(OCCCCCC(=O)NO)c(C)c3)nc2c1 | Y
O=C(CCCCCCC(=O)Nc1ccccc1)NO | N
COc1cc(OC)c2c(=O)[nH]c(-c3cc(C)c(OCCCCCCCC(=O)NO)c(C)c3)nc2c1 | Y
COc1cc(OC)c2c(=O)[nH]c(-c3cc(C)c(OCc4ccc(/C=C/C(=O)NO)cc4)c(C)c3)nc2c1 | N

----------
Tested on: OCI-AML2
experiment.notes: cells
Type: functional, cell-based
experimental.conditions: Homo sapiens, OCI-AML2, 72 h
Description: Antiproliferative activity against human OCI-AML2 cells after 72 hrs by MTT assay
pIC50: −log10 of the molar value.
# pIC50 listing for each entry below

molecule.smiles | pIC50
COc1cc(OC)c2c(=O)[nH]c(-c3cc(C)c(OCCCCCCCC(=O)NO)c(C)c3)nc2c1 | 5.66
COc1cc(OC)c2c(=O)[nH]c(-c3ccc(OCc4ccc(/C=C/C(=O)NO)cc4)cc3)nc2c1 | 5.75
COc1cc(OC)c2c(=O)[nH]c(-c3ccc(OCCCCCC(=O)NO)cc3)nc2c1 | 4.87
COc1cc(OC)c2c(=O)[nH]c(-c3cc(C)c(OCCCCCC(=O)NO)c(C)c3)nc2c1 | 6.01
COc1cc(OC)c2c(=O)[nH]c(-c3ccc(OCCCCC(=O)NO)cc3)nc2c1 | 4.91

----------
# pIC50 listing for each entry below
target.under.test: Bromodomain-containing protein 4 (Homo sapiens, UniProt O60885)
experiment.notes: Inhibition of human BRD4 bromo domain 2
pIC50: −log10 of the molar value.

molecule.smiles | pIC50
COc1cc(OC)c2c(=O)[nH]c(-c3cc(C)c(OCCCCC(=O)NO)c(C)c3)nc2c1 | 6.65
COc1cc(OC)c2c(=O)[nH]c(-c3cc(C)c(OCc4ccc(/C=C/C(=O)NO)cc4)c(C)c3)nc2c1 | 6.40

----------
target.under.test: Bromodomain-containing protein 4 (Homo sapiens)
experiment.notes: Inhibition of human BRD4 bromo domain 2 at 0.5 uM
# inhibition listing for each entry below
measure: inhibition (%)

molecule.smiles | target.under.test | measured
O=C(CCCCCCC(=O)Nc1ccccc1)NO | Bromodomain-containing protein 4 (Homo sapiens) | 2
COc1cc(OC)c2c(=O)[nH]c(-c3cc(C)c(OC/C=C/C(=O)NO)c(C)c3)nc2c1 | Bromodomain-containing protein 4 (Homo sapiens) | 41
COc1cc(OC)c2c(=O)[nH]c(-c3cc(C)c(OCCCCCCC(=O)NO)c(C)c3)nc2c1 | Bromodomain-containing protein 4 (Homo sapiens) | 29
COc1cc(OC)c2c(=O)[nH]c(-c3cc(C)c(OCCCC(=O)NO)c(C)c3)nc2c1 | Bromodomain-containing protein 4 (Homo sapiens) | 42
COc1cc(OC)c2c(=O)[nH]c(-c3cc(C)c(OCCCCCCCC(=O)NO)c(C)c3)nc2c1 | Bromodomain-containing protein 4 (Homo sapiens) | 59

----------
Test system: OCI-AML2
experiment.notes: cells
Assay type: functional, cell-based
experimental.conditions: Homo sapiens, OCI-AML2, 72 h
# log10 of IC50 listing for each entry below
measure: log10 of IC50 (log10 of the value in µM)

compound | log10 of IC50
COc1cc(OC)c2c(=O)[nH]c(-c3cc(C)c(OCc4ccc(/C=C/C(=O)NO)cc4)c(C)c3)nc2c1 | -0.42
COc1cc(OC)c2c(=O)[nH]c(-c3cc(C)c(Oc4ccc(C(=O)NO)cn4)c(C)c3)nc2c1 | 0.80
COc1cc(OC)c2c(=O)[nH]c(-c3cc(C)c(OCCO)c(C)c3)nc2c1 [APABETALONE] | 0.92
COc1cc(OC)c2c(=O)[nH]c(-c3cc(C)c(OCCCCC(=O)NO)c(C)c3)nc2c1 | 0.18
COc1cc(OC)c2c(=O)[nH]c(-c3cc(C)c(OCCCC(=O)NO)c(C)c3)nc2c1 | 0.66

----------
target.under.test: Bromodomain-containing protein 4 (Homo sapiens, UniProt O60885)
experiment.notes: Inhibition of human BRD4 bromo domain 2 at 5 uM

molecule.smiles | inhibition / %
COc1cc(OC)c2c(=O)[nH]c(-c3cc(C)c(OCCCC(=O)NO)c(C)c3)nc2c1 | 90
COc1cc(OC)c2c(=O)[nH]c(-c3cc(C)c(OCCCCC(=O)NO)c(C)c3)nc2c1 | 91
COc1cc(OC)c2c(=O)[nH]c(-c3cc(C)c(OCCCCCCC(=O)NO)c(C)c3)nc2c1 | 88
